- Experimental target: HLA-A*26:03
- Test: IEDB peptide-MHC binding, purified MHC/competitive/fluorescence; filed as Kd, often an IC50 or EC50 that approximates it; bounds were set here for any values at or beyond the usual limits of such assays
- Condition notes: source organism: Mycobacterium tuberculosis variant bovis BCG str. Pasteur 1173P2
pKd: −log10 of the molar value.
# maps each entry to its pKd
Endpoint name: pKd

>>> result("ATADLELAY")
"≤ 4.70"
>>> result("AVFLSYIGY")
"≤ 4.70"

====

- Experimental target: HLA-A*24:03
- Test: IEDB peptide-MHC binding, purified MHC/direct/fluorescence; filed as Kd, often an IC50 or EC50 that approximates it; bounds were set here for any values at or beyond the usual limits of such assays
- Condition notes: source organism: Toxoplasma gondii RH
pKd: −log10 of the molar value.
Endpoint name: pKd

>>> result("THADAHTQL")
"≤ 4.70"
